Listed compounds paired with reported TAR HIV transcripts (DMSO = 100)
# System: HIV transcripts (TAR, LLTR, Pol, PolyA, TatRev)
# method_description: Baseline HIV transcription without activation, PBMCs from ART-suppressed PWH, 24 hours
# Format: cell-based
# settings: participant 2027; no activation; ruxolitinib 4μM, dinaciclib 8nM, AZD4573 8nM, pladienolide B 10nM, KRIBB11 2.5μM
parameter_measured: TAR HIV transcripts (DMSO = 100)

compound: CCc1cnn2c(NCc3ccc[n+]([O-])c3)cc(N3CCCC[C@H]3CCO)nc12 [dinaciclib]
measured_number: 248.84

compound: N#CC[C@H](C1CCCC1)n1cc(-c2ncnc3[nH]ccc23)cn1 [ruxolitinib]
measured_number: 90.7

compound: CNc1ccc([N+](=O)[O-])c(Nc2ccc3[nH]ncc3c2)n1 [KRIBB11]
measured_number: 144.19

compound: CC(=O)N[C@@H]1CCC[C@H](C(=O)Nc2cc(-c3cnn4c3CC(C)(C)C4)c(Cl)cn2)C1 [AZD4573]
measured_number: 211.63

Where do the numbers come from? From paper PMC11466185.
